# Assay Protocol: amyloid nucleation score (Sup35N fusion, yeast selection) (log enrichment); library NNK1; higher = more nucleation; inactive = no reads after selection;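 note: zero at mode of non-aggregating sequences after 7 days selection at 30°C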

Substance | amyloid nucleation score
EFYVTCFCVRMKTKAYAPLV | 0.106
VFITSVFVRECNTHESTTIQ | 8.07
APVFYIPIMFSQLFGLAQIY | 6.93
FNFRYPKDRGVSIVGCNFPM | -0.065
TDCQRYI | 1.6
HESNMSMYYERYMLLSRNGS | 0.269
DNYGCYCL | 0.802

---

# Assay Protocol: amyloid nucleation score (Sup35N fusion, yeast selection) (log enrichment); library NNK2; higher = more nucleation; inactive = no reads after selection
amyloid nucleation score listing for selected sequences.

Biopolymer Sequence | amyloid nucleation score
LGPAYYYHNYLNLRGLSSGM | 0.504
NARICDTLVLKLLTVLLENG | 3.44
KRFGLVCVIQQAQKWVNGTG | 0.179
IPMHPLCGVRRNTELRVVEW | 1.78
LLSGEDQLMKYLKSKNSCLW | -0.67
SSWLRINRIYLYEQL | -0.305
NCQRVWYCWVALSLCETCID | 5.17
DNKSCFTNVWNYNVTEHWGH | -1.4

---

Reported amyloid nucleation score values for the following substances.
# Assay Protocol: amyloid nucleation score (Sup35N fusion, yeast selection) (log enrichment); library NNK2; higher = more nucleation; inactive = no reads after selection

Substance | amyloid nucleation score
MQTCYSDQMDFVYEAYYCTW | 1.7
SLDQFSLSPKAVQRVACVAQ | 0.251
YILSDIIFMGIWGV | 4.1
WYFPSVKIIENLW | 6.04
ILLRMTITCMFTPYHAERRG | 4.61
ITGKTGVCSNNYTLKILGIV | -0.826
IAHCCFGQF | 7.63
LHKISIGKCSRCSCRNTFGE | -0.171
GFSIVNQDWYS | 0.675
DQSTSFFIFYNQTNWSMLFP | 6.12
RIMSCNQITNIICVL | 4.89
RTWQCDDWSQYLLVVF | -0.1
IIEPYVHGVWKFHRFYLKSA | -0.701
ATPLSGMVFNWSFEWQGCLL | 0.949
GSSRLCRQYAVNFFDCHMYD | 4.78
GNGLFSVFYIFYAAGKRSVC | 0.394
KGLWTISVSLWVV | 0.112
VDWFLYFCSPTFCHVL | 8.74
LTNNHYIKPFRSRIRVMVMY | 4.79
TMILKWESRCERGPGEVRLV | 6.2
LVVLLMRWSLPLNVESGMF | -0.105
MEWKSGL | 0.534
ESNKRTTCLFH | 0.331
ARMSFWRRRPLLLSLRRSGV | 0.379
RMQVYGDMSKCKDSWFCFRT | 0.703
LIMYGTKLSRLVMLLYYWTW | 0.031
VEARKLYQCMCVVRC | -0.143
YTQAYILVLIVLLLLSVMVI | 5.64
KISSLLGWLWRITIRRLGRA | 0.617
CLQCQLIRRGLTKMNMGFAS | -0.023
SMPPRLQSKLPRDFSAQSVK | 4.63
IMVRVIAFNVL | 6.86
FIGCKEHNILNSMKRVD | -0.594
SYYSNSLVGDFPVPISNSVM | -0.249
FWLSSESANYTCFKRYVG | 0.25
FFRNIIYRCMREIKFIEPSE | -0.046
KLKSVRDLSCLSYHSDIKVK | 3.58
MSFYPRWFSQGMLWCKHHHA | 0.516
VSITHQLTYW | 1.33
VFSEWWFTANAACSAQCYEW | 0.789
KFCSRVFSQCMSYLSCLLDF | 0.17
FSLFWWMSHITREWISCMCM | -0.895
YVKLCSRRDGT | -0.352
LNTNPARYLPGMFNPRSKYL | -0.324
FLLPIWGSNHNTLNFR | -0.547
TITCLFKVRRCVYV | -0.325
NVPCGLN | -0.032
NWGWFVSLFYGVAAGDHSRT | 0.955
SFFLFWRFCIGAW | -0.977
WARNEIYRRSTNKWPPMVRG | -0.014
LFRLSCIALCVGIIIVSDGV | -0.33
IFVGVNCIQKISKRYGWYLC | 0.214
ERFHIVLHMVIDDRVSFGCV | 2.96
FILQELCWPVLSSIHFGNVA | -1.15
FDCRNIREMHTRVYNSCTHP | -0.266
ECCQILCGSYWYIKYLSYDC | 1.8
SSMQPHLVSSVL | 3.7
SVYHLRLI | -0.494
VNYLPWLWSMCNRVH | -0.943
LMTSDAGSLAIVVVNCNFGT | 7.94
SRLLIREYNLVSNDKFIYFV | 3.01
LYPSFEDTLRWPSPRGMKMC | 0.182
SATEWIISVGGRAWRF | 2.65

---

# Assay Protocol: amyloid nucleation score (Sup35N fusion, yeast selection) (log enrichment); library NNK3; higher = more nucleation; inactive = no reads after selection

Substance | amyloid nucleation score
LFLISG | inactive
YFSQVGRDCMFR | inactive
MYERRSLDKKVHRCYILALT | inactive
MVRMDHCQVEDSMVTNVD | inactive
LYVFCLAILPLDVLRFSLML | inactive
HNPLVRFAQHLLITEDQCMN | inactive
IIHLENMPICQGALIDGLAL | inactive
WGLGAINIDMRRRLDPRCKR | 0.312
SEIVSKVITLQGNICFFGMG | inactive
CGIMPLSHGIDLMFVRVTPG | inactive
FTWLSMYYCLRANERK | 1.33
FITFHENDAVELEG | inactive
IYSWTGLSTTLKFLGMSLLL | -0.218
RNFRRVSSRF | inactive
ASHMMQRIMTRQ | -0.308
TSGSEDLLYGRDVVVYRSGC | inactive
PPCWLYDFVTNVNNWWYEHC | inactive

---

# Assay Protocol: amyloid nucleation score (Sup35N fusion, yeast selection) (log enrichment); library NNK2; higher = more nucleation; inactive = no reads after selection
Property: amyloid nucleation score; scope: individual sequences
Outcome Measure: amyloid nucleation score

Biopolymer Sequence | Outcome Measure | Measurement
LMWADLLLKKLILFA | amyloid nucleation score | -0.334
PLLRSKKKSALYPA | amyloid nucleation score | -0.021
YHFYMASYKAFKSGGVGTGG | amyloid nucleation score | -1.56
STFLCVLTGMCCMARMS | amyloid nucleation score | 0.54
IEGQGLIVCNGDCTGRPNLR | amyloid nucleation score | 1.69

---

# Assay Protocol: amyloid nucleation score (Sup35N fusion, yeast selection) (log enrichment); library NNK2; higher = more nucleation; inactive = no reads after selection
# label = condition met if amyloid nucleation score >= -0.1 else condition not met

Substance | Assigned Class
LVGMSATYPTHNWFKVRTYF | condition not met
MWISFFCRRYSNIWTGFGYM | condition not met
YMRDFYRVRNYRRCCVVCPS | condition not met
VWVSSIDMGLFVANLCETAS | condition met
AVYCTL | condition met
VTYEIVLWSWIKDVVHKLLR | condition not met
FLGKDWYVVTSVVKYTNAFF | condition met
TFNYHVTYFLGHFFSTYGRF | condition met
GKFVLFRMMFNLVNYRSVLQ | condition not met
HLCKLSYI | condition met
RPNAVVFLTDNNVRRSDCWV | condition not met
FRRFCQDILYICMRKDMVQG | condition met
WGSEAHTDRVVQYWILALQR | condition met
SFGYPPVCLLFSHLHRRFLL | condition met
SMTNNMGLLE | condition not met
VTRKTWFFVLCNQLFTLFAD | condition met
KTFTPSIELGYMGHCDCDT | condition not met
GQSLLLEPSGWVSSDIKMKG | condition met
GTVFCYLM | condition not met
LYYGNPEKIPADGLSSHIMQ | condition met
CCAVTVAMECGGIVLVRYCF | condition met
ICISGAFNVTAHLKLAQASL | condition met
YCMNLKDSTLLILKQPARST | condition met
FIITNWQVSFRL | condition met
RALEIALMLSTTCKSGFRRE | condition met
SFKHLT | condition not met
AGAHVVKAIHFSLYGNEGLT | condition met
VYEAWRTMQTGMYGVNRVWS | condition met
DNNTIWD | condition met

---

Listed sequences paired with reported amyloid nucleation score
# Assay Protocol: amyloid nucleation score (Sup35N fusion, yeast selection) (log enrichment); library NNK2; higher = more nucleation; inactive = no reads after selection

Biopolymer Sequence | amyloid nucleation score
WYGFNNDTEWKNTKAFW | 1.83
QWVVTRDFVE | -0.041
LRKHFWLGCEGAWLVFG | 4.81
YFMLPLYMMLLGYFYKTICS | 6.93
TINTAMWTWSITETLPYCTW | 4.03
FWRVLLSTLHTIFNMRNNMP | -1.28
SRLGFMAKPLMDVS | 2.79
MKGNGCNIFRQGTWRDSFAD | -0.715
